Tested on: AMPA receptor
Experiment: Antagonism of AMPA-induced depolarization of rat cortical wedges
Type: cell-based
Settings: Table III; racemic; AMPA 40 μM; mean ± standard error (n = 3); read-out: IC50 AMPA, antagonism of cortical wedge depolarization
Protocol: The depolarization of rat cortical wedges was used to test the selectivity and potency of the formula I compounds as AMPA antagonists using a technique similar to that described by Harrison and Simmonds. Harrison and Simmonds, Bri. J. Pharmacol., 84, 381-391 (1984). […] The IC50 values were calculated from linear regression of log dose-response curves, each point the mean of at least three observations on separate slices from more than one animal.
property.name: IC50 (µM)

compound	property.name	result.units	readout.value
O=C(O)[C@@H]1C[C@H]2C[C@H](CCS(=O)(=O)O)CC[C@H]2CN1 (racemic)	IC50	µM	31.4
O=C(O)[C@@H]1C[C@H]2C[C@@H](CCCc3nnn[nH]3)CC[C@H]2CN1 (racemic)	IC50	µM	22
O=C(O)[C@@H]1C[C@H]2C[C@H](CCSc3nnn[nH]3)CC[C@H]2CN1 (racemic)	IC50	µM	6.8
O=C(O)CC[C@H]1CC[C@H]2CN[C@H](C(=O)O)C[C@H]2C1 (racemic)	IC50	µM	42
O=C(O)[C@@H]1C[C@H]2C[C@@H](CSc3ncn[nH]3)CC[C@H]2CN1 (racemic)	IC50	µM	68.8
